These entries and their values trace back to paper PMC9911399.

binding signal values for the binders below.
- experimentalTarget: T1, RBFOX1 RRM (Homo sapiens, UniProt Q9NWB1 109-208)
- T1 sequence: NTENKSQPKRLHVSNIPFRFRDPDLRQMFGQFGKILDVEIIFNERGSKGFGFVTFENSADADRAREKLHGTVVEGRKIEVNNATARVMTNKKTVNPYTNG
- assayDetails: EMSA; HiTS-Eq, 1 nM pool, 10 min; buffer printed only for the single-RNA assays: 10 mM Tris pH 7.5, 150 mM NaCl, 3.4 mM EDTA, 0.001% NP-40, 30 C
- settings: tags: His6 N-terminal (pET28a); label: 5' 32P
The full ranking holds about 16,000 sequences; the median of “ka relative to ugcaugu” is about 0.0091, and the highest 2% start at about 0.032. Shown is part of a subset that was picked to be rich in the highest values.

binder: CUGGGUC (DNA:RNA) RNA: GGGAGACCGGAAUUCAGAUUGUCCCUGGGUCUUAAAUCCCGUCGUAGCCACCA DNA 1: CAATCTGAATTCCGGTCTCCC DNA 2: TGGTGGCTACGACGGGATT
binding signal: 0.0291 KA relative to UGCAUGU
--
binder: CUGGUCU (DNA:RNA) RNA: GGGAGACCGGAAUUCAGAUUGUCCCUGGUCUUUAAAUCCCGUCGUAGCCACCA DNA 1: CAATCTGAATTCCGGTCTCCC DNA 2: TGGTGGCTACGACGGGATT
binding signal: 0.0225 KA relative to UGCAUGU
--
binder: GAUCCGC (DNA:RNA) RNA: GGGAGACCGGAAUUCAGAUUGUCCGAUCCGCUUAAAUCCCGUCGUAGCCACCA DNA 1: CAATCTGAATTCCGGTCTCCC DNA 2: TGGTGGCTACGACGGGATT
binding signal: 0.0132 KA relative to UGCAUGU

We now examine a further binder.
May I ask what binding signal has been recorded for CGUGGUC (DNA:RNA) RNA: GGGAGACCGGAAUUCAGAUUGUCCCGUGGUCUUAAAUCCCGUCGUAGCCACCA DNA 1: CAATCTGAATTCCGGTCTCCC DNA 2: TGGTGGCTACGACGGGATT ?
0.017 KA relative to UGCAUGU
